Biological target: T1, TubR (Clostridium botulinum prophage c-st, UniProt Q331T6 1-81)
T1 sequence: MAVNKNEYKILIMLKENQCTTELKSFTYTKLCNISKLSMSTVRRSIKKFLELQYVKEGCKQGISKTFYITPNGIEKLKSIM
Test: EMSA
PROPERTY_NAME: binding result

1) SF2 (dsDNA) DNA 1: AGAATATACTTTGAATATAATTAGACTTAAACAAGATTACTTTTAGACTATAGTATAAATATAATTAGAAAATAATTTGAATAATTTATGAAAATAAGTACACATTTTCTAAGGAATATAGTATAATATAGTAAAGAAAGA DNA 2: TCTTTCTTTACTATATTATACTATATTCCTTAGAAAATGTGTACTTATTTTCATAAATTATTCAAATTATTTTCTAATTATATTTATACTATAGTCTAAAAGTAATCTTGTTTAAGTCTAATTATATTCAAAGTATATTCT; binds
2) SF3 (dsDNA) DNA 1: GTTAATTGTAGCGTTAAGTGAGACATAGAATTGAACATATAGTGAACATAATACAACTAGTACAAGAATGTAGTTTGACTATAATTTGAACATATTTAGAATATACTTTGAATATAATTAGACTTAAACAAG DNA 2: CTTGTTTAAGTCTAATTATATTCAAAGTATATTCTAAATATGTTCAAATTATAGTCAAACTACATTCTTGTACTAGTTGTATTATGTTCACTATATGTTCAATTCTATGTCTCACTTAACGCTACAATTAAC; binds
3) SF1 (dsDNA) DNA 1: TAAGGAATATAGTATAATATAGTAAAGAAAGAAATAAACATGATATGAACATATATTGACTACAGTTTGACATAGTTTTGACTATGATATGAACAAAATAAGAATGTATTATGAATATTTTCTTACATTACTGCGACTACTATCAG DNA 2: CTGATAGTAGTCGCAGTAATGTAAGAAAATATTCATAATACATTCTTATTTTGTTCATATCATAGTCAAAACTATGTCAAACTGTAGTCAATATATGTTCATATCATGTTTATTTCTTTCTTTACTATATTATACTATATTCCTTA; binds
